test.description: log P determination by LC-MS in the acidic range
Format: physicochemical
protocol.conditions: LC-MS in the acidic range
From the text: The LC-MS determination in the acidic range is effected at pH 2.7 using 0.1% aqueous formic acid and acetonitrile (contains 0.1% formic acid) as eluents, linear gradient from 10% acetonitrile to 95% acetonitrile. Alternatively, the determination is effected in the acidic range at pH 2.3 using 0.1% aqueous phosphoric acid and acetonitrile as eluents; linear gradient from 10% acetonitrile to 95% acetonitrile.
recorded.metric: log P (acid)

{"molecule": "Cc1cc(NC(=O)c2cccnc2)nn1CC1CC1(Cl)Cl (stereo not drawn)", "meas.value": 1.84}
{"molecule": "Cc1cc(NC(=O)c2cccnc2)nn1C(C)(C)C#N", "meas.value": 1.31}
{"molecule": "CCCNC(=O)n1nc(NC(=O)c2cccnc2)cc1C", "meas.value": 1.56}
{"molecule": "Cc1cc(NC(=O)c2cccnc2)nn1-c1ncccc1Cl", "meas.value": 1.35}
{"molecule": "COc1cc(OC)nc(Cn2nc(NC(=O)c3cccnc3)cc2C)n1", "meas.value": 1.59}
{"molecule": "COCC(C)NC(=O)n1nc(NC(=O)c2cccnc2)cc1C (stereo not drawn)", "meas.value": 1.44}
{"molecule": "COc1cccc(Cn2ccc(NC(=O)c3cccnc3)n2)c1", "meas.value": 1.57}
{"molecule": "COCCNC(=O)n1nc(NC(=O)c2cccnc2)cc1C", "meas.value": 1.22}
{"molecule": "Cc1cc(NC(=O)c2cccnc2)nn1C(F)F", "meas.value": 1.19}
